TESTED_ON: UniProt:B2RXH2
Sequence (B2RXH2 whole entry): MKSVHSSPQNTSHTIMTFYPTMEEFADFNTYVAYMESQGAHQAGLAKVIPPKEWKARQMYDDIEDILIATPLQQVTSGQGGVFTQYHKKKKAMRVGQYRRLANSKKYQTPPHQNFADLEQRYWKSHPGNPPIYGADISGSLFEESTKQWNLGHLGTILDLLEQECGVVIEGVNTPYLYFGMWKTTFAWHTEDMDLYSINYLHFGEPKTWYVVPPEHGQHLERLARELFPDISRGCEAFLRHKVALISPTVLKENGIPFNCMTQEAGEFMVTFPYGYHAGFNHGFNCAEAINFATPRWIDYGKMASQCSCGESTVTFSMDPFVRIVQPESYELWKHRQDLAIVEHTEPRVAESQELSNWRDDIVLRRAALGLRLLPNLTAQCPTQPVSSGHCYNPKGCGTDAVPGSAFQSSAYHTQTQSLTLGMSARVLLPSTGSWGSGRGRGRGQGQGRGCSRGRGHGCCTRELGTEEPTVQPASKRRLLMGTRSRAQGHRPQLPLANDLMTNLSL
TEST_DESCRIPTION: Uncompetitive inhibition of JMJD2E relative to alpha-ketoglutarate
READOUT_KIND: pKi
The quantity pKi is defined as the negative base-10 logarithm of the molar concentration.

Entry C[C@@](Cc1ccc(O)c(O)c1)(NN)C(=O)O has what pKi?
5.70

====

Task for the reader: assign each of the following compounds its reported IC50.
Return type: number; implicit unit µM.

Could you share what IC50 was measured for O=C(O)C(=O)N[C@H](CSCc1ccccc1)C(=O)O , tested on Lysine-specific demethylase 4E (Homo sapiens)?
200

For the record COc1ccccc1CSC[C@@H](NC(=O)C(=O)O)C(=O)O , what value of IC50 is listed for Lysine-specific demethylase 4E (Homo sapiens)?
200

Could you share what IC50 was measured for CC(C)(C)c1ccc(S(=O)(=O)Oc2ccc(C[C@@H](NC(=O)C(=O)O)C(=O)O)cc2)cc1 , tested on Lysine-specific demethylase 4E (Homo sapiens)?
5

Short answer please: IC50, Lysine-specific demethylase 4E (Homo sapiens), entry O=C(O)C(=O)N[C@H](Cc1ccc(OS(=O)(=O)c2ccc(F)cc2)cc1)C(=O)O
5

====

TESTED_ON: Lysine-specific histone demethylase 1A (Homo sapiens)
READOUT_KIND: IC50 (µM)
Response body: numeric value in µM, unit text excluded.

Given the entry CC(C)COc1ccc(Cl)cc1C1CC1N (stereo unspecified) , report its measured IC50.
9

Hello, the source for this data is ChEMBL document CHEMBL1795231, in case you need it.
